- Target Or Test System: Histone deacetylase 8 (Homo sapiens)
- Experiment Description: Binding affinity to HDAC8 (unknown origin) assessed as inhibition constant(ki,1)
Property Measured: Ki (µM)

* O=C(CCCCCCC(=O)C(F)(F)F)Nc1ccccc1 | 7.3

* * *

- Target Or Test System: Histone deacetylase 8 (Homo sapiens, UniProt Q9BY41)
- Sequence (Q9BY41 whole entry): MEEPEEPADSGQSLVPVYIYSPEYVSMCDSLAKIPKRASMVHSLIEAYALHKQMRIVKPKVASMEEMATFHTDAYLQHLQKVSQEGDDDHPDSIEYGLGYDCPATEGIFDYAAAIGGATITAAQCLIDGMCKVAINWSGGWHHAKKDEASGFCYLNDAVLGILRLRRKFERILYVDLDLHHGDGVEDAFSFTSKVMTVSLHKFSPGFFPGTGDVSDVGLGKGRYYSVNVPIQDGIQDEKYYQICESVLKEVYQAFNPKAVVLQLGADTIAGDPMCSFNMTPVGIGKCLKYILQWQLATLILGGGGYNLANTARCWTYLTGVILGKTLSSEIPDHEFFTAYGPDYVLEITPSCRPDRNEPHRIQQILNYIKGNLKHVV
- Experiment Description: Binding affinity to HDAC8 (unknown origin) assessed as inhibition constant
Property Measured: Ki

- O=C(CCCCCCC(=O)C(F)(F)F)Nc1ccccc1: ~33 nM

* * *

- Experiment Description: Half life in C57BL/6 mouse brain at 45 mg/kg, ip
- Type: ADME, organism-based
Property Measured: half-life (h)

* CC(=O)Nc1ccc(C(=O)Nc2cc(-c3cccs3)ccc2N)cc1 | 6.44

* * *

- Target Or Test System: Histone deacetylase 2 (Homo sapiens)
- Sequence (Q92769 whole entry): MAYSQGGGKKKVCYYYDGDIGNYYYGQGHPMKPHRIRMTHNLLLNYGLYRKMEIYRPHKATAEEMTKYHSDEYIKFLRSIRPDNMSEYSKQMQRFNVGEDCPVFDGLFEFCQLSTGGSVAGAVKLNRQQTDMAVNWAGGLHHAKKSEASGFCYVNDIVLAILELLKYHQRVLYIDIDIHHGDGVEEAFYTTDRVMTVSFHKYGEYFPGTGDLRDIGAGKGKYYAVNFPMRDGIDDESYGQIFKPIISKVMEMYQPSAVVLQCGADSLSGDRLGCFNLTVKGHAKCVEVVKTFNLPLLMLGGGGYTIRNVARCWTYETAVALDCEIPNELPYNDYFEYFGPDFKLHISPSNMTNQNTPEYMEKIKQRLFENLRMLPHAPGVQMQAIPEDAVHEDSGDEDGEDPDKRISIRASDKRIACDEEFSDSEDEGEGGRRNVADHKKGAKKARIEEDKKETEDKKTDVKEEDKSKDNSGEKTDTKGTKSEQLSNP
pKi: −log10 of the molar value. Non-standard residues stand in square brackets, D forms with d. Residues, ends and D or L forms follow the SMILES beside them. *: point of attachment. Asu = N[C@@H](CCCCCC(=O)O)C(=O)O; dPip = O=C(O)[C@H]1CCCCN1; NHOH = ON*
Property Measured: pKi

- CC[C@H](C)[C@@H]1NC(=O)[C@H](Cc2c[nH]c3ccccc23)NC(=O)[C@H](CCCCCC(=O)NO)NC(=O)[C@H]2CCCCN2C1=O (cyclo([Asu](NHOH)WI[dPip])): 9.46

* * *

- Target Or Test System: UniProt Q92769
- Experiment Description: Inhibition of HDAC2 (unknown origin) measured after 1 hrs by fluorescence based assay
As shown below, each of these compounds has a reported IC50 value.
Property Measured: IC50 (µM)

• O=C(/C=C(\CO)c1ccccc1)c1ccccc1 = 9.19
• NC/C(=C\C(=O)c1ccccc1)c1ccccc1 = 19.6

* * *

- Target Or Test System: Histone deacetylase 1 (Homo sapiens)
- Sequence (Q13547 whole entry): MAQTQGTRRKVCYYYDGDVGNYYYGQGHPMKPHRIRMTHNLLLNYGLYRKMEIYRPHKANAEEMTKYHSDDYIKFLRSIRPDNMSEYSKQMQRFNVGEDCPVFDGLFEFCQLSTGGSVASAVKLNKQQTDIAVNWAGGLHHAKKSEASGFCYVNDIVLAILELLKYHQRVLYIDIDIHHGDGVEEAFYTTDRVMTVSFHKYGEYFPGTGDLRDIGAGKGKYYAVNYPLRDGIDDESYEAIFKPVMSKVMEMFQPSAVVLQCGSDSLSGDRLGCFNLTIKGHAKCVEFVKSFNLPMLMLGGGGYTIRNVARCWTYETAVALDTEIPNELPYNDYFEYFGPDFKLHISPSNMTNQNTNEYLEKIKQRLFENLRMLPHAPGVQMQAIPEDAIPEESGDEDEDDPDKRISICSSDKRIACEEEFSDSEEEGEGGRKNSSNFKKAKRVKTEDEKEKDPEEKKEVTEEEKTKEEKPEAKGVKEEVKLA
Property Measured: Ki

- C/C=C1\NC(=O)[C@H]2CSSCC/C=C/[C@H](CC(=O)N[C@H](C(C)C)C(=O)N2)OC(=O)[C@H](C(C)C)NC1=O [ROMIDEPSIN]: ~20 pM
